The measured values listed here are drawn from patent US20210388082A1.

Entries and their pKd values follow.
- target_system: T1, recombinant human CD79b extracellular domain protein (human, UniProt P40259 29-159)
- T1 construct: Bought protein; also called CD79b ECD; human CD79b-ECD
- T1 sequence: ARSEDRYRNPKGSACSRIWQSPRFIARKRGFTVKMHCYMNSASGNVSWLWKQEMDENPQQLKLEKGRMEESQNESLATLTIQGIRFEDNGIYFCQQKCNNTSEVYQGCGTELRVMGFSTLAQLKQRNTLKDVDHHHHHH
- method_notes: SPR (Biacore T200), antibody on CM5 chip, CD79b ECD as analyte, 25 C
// pKd is dimensionless: -log10 of concentration (M)

// worked examples, pKd included
>  <binder>
Humanized antibody AS11254 (antibody, human IgG1, kappa, V domains shown, Humanized IgG1 / kappa) VH: QVQLVQSGAEVKKPGASVKVSCKTSGNTFTSYGINWVKQAPGQGLEWMGEIFPRSGNIYYNEKFKGRVTITADKSTSTAYMELSSLRSEDTAVYYCAKGGTGDFDYWGQGTLVTVSS VL: DVVMTQSPLSLPVTLGQPASISCRSSQNIVHSDGNTYLEWYQQRPGQSPRLLIYKVSFRLSGVPDRFSGSGSGTDFTLKISRVEAEDVGVYYCFQGSHVPWTFGGGTKVEIKR

>  <number>
10.73

$$$$
>  <binder>
Humanized antibody AS11164 (antibody, human IgG1, kappa, V domains shown, Humanized IgG1 / kappa) VH: QVQLVQSGAEVKKPGSSVKVSCKTSGNTFTSYGINWVRQAPGQGLEWMGEIFPRSGNIYYNEKFKGKVTITADKSTSTAYMELSSLRSEDTAVYYCAKGGTGDFDYWGQGTLVTVSS VL: DVLMTQSPLSLPVTLGQPASISCRSSQNIVHSDGNTYLEWYQQRPGQSPKLLIYKVSFRLSGVPDRFSGSGSGTDFTLKISRVEAEDVGVYYCFQGSHVPWTFGGGTKVEIKR

>  <number>
10.89

$$$$
>  <binder>
recombinant human-mouse chimeric antibody 104E1 (antibody, V domains shown, also called chimeric 104E1) VH: QVQLQQSGSELARPGASVKLSCKTSGNTFTSYGINWVKQRTGQGLEWIGEIFPRSGNIYYNEKFKGKATLTADKSSSTAYMELRSLTSEDSAVYFCAKGGTGDFDYWGQGTTLTVSS VL: DVLMTQTPLSLPVSLGDQASISCRSSQNIVHSDGNTYLEWYLQKPGQSPKLLIYKVSFRLSGVPDRFSGSGSGTDFTLKIRRVEAEDLGTYYCFQGSHVPWTFGGGTKLEIK

>  <number>
10.47

$$$$

Then this binder:
pKd reading for Humanized antibody AS11161 (antibody, human IgG1, kappa, V domains shown, Humanized IgG1 / kappa) VH: QVQLVQSGAEVKKPGSSVKVSCKTSGNTFTSYGINWVRQAPGQGLEWMGEIFPRSGNIYYNEKFKGKVTITADKSTSTAYMELSSLRSEDTAVYYCAKGGTGDFDYWGQGTLVTVSS VL: DVVMTQSPLSLPVTLGQPASISCRSSQNIVHSDGNTYLEWYQQRPGQSPRLLIYKVSFRLSGVPDRFSGSGSGTDFTLKISRVEAEDVGVYYCFQGSHVPWTFGGGTKVEIKR : 10.85
